- Target Desc: AnxA2 (annexin A2, wt) (Bos taurus (bovine), UniProt P04272 1-339)
- Sequence (P04272 whole entry): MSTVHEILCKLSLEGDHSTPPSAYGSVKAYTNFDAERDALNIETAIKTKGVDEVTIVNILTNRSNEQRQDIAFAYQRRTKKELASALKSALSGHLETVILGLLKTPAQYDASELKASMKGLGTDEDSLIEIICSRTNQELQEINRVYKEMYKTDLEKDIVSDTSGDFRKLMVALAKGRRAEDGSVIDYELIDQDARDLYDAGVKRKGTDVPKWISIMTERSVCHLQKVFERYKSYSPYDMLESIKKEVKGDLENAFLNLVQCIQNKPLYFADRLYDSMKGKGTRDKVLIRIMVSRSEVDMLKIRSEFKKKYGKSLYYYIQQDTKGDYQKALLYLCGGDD
- Experimental Details: SPR; kinetic 1:1 fit (ka 0.99e6 1/Ms, kd 0.002 1/s); 70 uM Ca2+, 1 mM Mg2+; AnxA2 immobilized; HBS-EP: 10 mM HEPES pH 7.4, 150 mM NaCl, 3 mM EDTA, 0.005% Surfactant P20, 70 uM Ca2+, 1 mM Mg2+, 25 °C
- Study Conditions: protein: recombinant; single strand
Endpoint Label: pKd
One number for each entry, as −log10 of the molar value.

Task: For the binder shown here, GGGGAUUG (ssRNA) [8-mer RNA] , give the reported pKd.
Output: 8.70
